Test: Upper solubility limit in the test solvent (DMSO)
Format: physicochemical
Conditions: organic solvent or mixture
recordedMetric: solubility (µM)

> print(dat)
                                   compound  readoutvalue
1  O=c1oc2c(O)c(O)cc3c(=O)oc4c(O)c(O)cc1c4c23 [ellagic acid]           135

Source: patent US20010053350A1
